assay_name: Protective index, ratio of TD50 for behavioural toxicity in po dosed albino Sprague-Dawley rat to ED50 for anticonvulsant activity in po dosed MES albino Sprague-Dawley rat model
Type: organism-based
test_context: in vivo, read-out: Ratio TD50/ED50
# reported selectivity ratio; entries follow
recorded_endpoint: selectivity ratio

>>> test_result("COC[C@@H](NC(C)=O)C(=O)NCc1ccc(Oc2cccc(OC(F)(F)F)c2)cc1")
29
>>> test_result("COC[C@@H](NC(C)=O)C(=O)NCc1ccc(Oc2cccc(Cl)c2)cc1")
18

###

assay_name: Behavioural toxicity in ip dosed albino Sprague-Dawley rat measured at 2 hrs
Type: organism-based
test_context: in vivo
recorded_endpoint: TD50 at 2 h (mg/kg)

>>> test_result("COC[C@@H](NC(C)=O)C(=O)NCc1ccc(Oc2cccc(OC(F)(F)F)c2)cc1")
54

###

assay_name: Behavioural toxicity in ip dosed albino Sprague-Dawley rat measured at 0.5 hrs
Format: organism-based
test_context: in vivo
recorded_endpoint: TD50 at 0.5 h (mg/kg)

>>> test_result("COC[C@@H](NC(C)=O)C(=O)NCc1ccc(Oc2cccc(Cl)c2)cc1")
49

###

assay_name: Behavioural toxicity in po dosed albino Sprague-Dawley rat measured at 1 hr
Format: organism-based
test_context: in vivo
recorded_endpoint: TD50 at 1 h (mg/kg)

>>> test_result("COC[C@@H](NC(C)=O)C(=O)NCc1ccc(Oc2cccc(OC(F)(F)F)c2)cc1")
240

###

System: Mus musculus
assay_name: Anticonvulsant activity in ip dosed albino Carworth Farms No. 1 mouse measured at 0.5 hrs by 6Hz (32 mA) psychomotor seizure test
Type: functional
test_context: Carworth Farms No. 1, ip
recorded_endpoint: ED50

>>> test_result("COC[C@@H](NC(C)=O)C(=O)NCc1ccc(Oc2cccc(OC)c2)cc1")
"< 100 mg/kg"
>>> test_result("COC[C@@H](NC(C)=O)C(=O)NCc1ccc(Oc2ccccc2)cc1")
"< 30 mg/kg"
>>> test_result("COC[C@@H](NC(C)=O)C(=O)NCc1ccc(Oc2cccc(C(F)(F)F)c2)cc1")
"< 100 mg/kg"

Recorded values, source ChEMBL document CHEMBL3588826.
